target desc: Aβ42 (Homo sapiens, UniProt P05067)
Sequence (P05067 672-713): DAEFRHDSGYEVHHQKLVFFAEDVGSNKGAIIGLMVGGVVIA
procedure summary: Th-T (thioflavin-T) assay of Aβ42 aggregation
Format: biochemical
assay setup: compound at 20; reading M51 of time course
Rule: measured Th-T fluorescence, mean of three wells below 2 gets 1; anything equal to or greater than 2 gets 0.

Data request: Input C=C1CC[C@@H]2[C@](C)(CC[C@H]3O[C@H](C=C(C)C)C[C@@]23C)[C@@H]1Cc1c(OC)oc(CO)c(C(=O)OC)c1=O ; condition: Th-T fluorescence, mean of three wells strictly below 2. Does it hold?
Data returned: 1

Data request: API: query returns whether the compound falls strictly under 2 in Th-T fluorescence, mean of three wells. Query: C=C1CCC2C(C)(CCC=C(C)C)C(O)CCC2(C)C1Cc1c(OC)oc(CO)c(C(=O)OC)c1=O (centres unmarked)
Data returned: 1

Data request: Does the reported Th-T fluorescence, mean of three wells of C=C1CCC2C(C)(CCC=C(C)C)C(O)CCC2(C)C1Cc1c(OC)oc(CO)c(C)c1=O (centres unmarked) stay below 2?
Data returned: 0

Data request: Dear colleague, could you confirm whether Th-T fluorescence, mean of three wells of C=C1CCC2C(C)(CCC=C(C)C)C(O)CCC2(C)C1Cc1c(OC)oc(C)c(C(=O)OC)c1=O (centres unmarked) falls below 2? Thanks.
Data returned: 0

Data request: Consider the compound C=C1CC[C@@H]2[C@](C)(CC[C@H]3O[C@H](C=C(C)C)C[C@@]23C)[C@@H]1Cc1c(OC)oc(CO)c(C)c1=O . Is its Th-T fluorescence, mean of three wells strictly less than 2?
Data returned: 0
